Taken from patent US7279324B2.

molecular target: α1B-AR R143A (Mesocricetus auratus, UniProt P18841, R143A); assay: [3H]prazosin whole cell binding, Scatchard analysis, HEK-293 cells; settings: [3H]prazosin Scatchard, similar to wild type, read-out: KD for NE
pKd: −log10 of the molar value.
value-type: pKd

So for NC[C@H](O)c1ccc(O)c(O)c1 [NE, Norepinephrine] , the logged pKd turned out to be 8.46 to 8.82

* * *

Molecular target: wild type α1B-AR (Mesocricetus auratus)
Sequence (P18841 1-515): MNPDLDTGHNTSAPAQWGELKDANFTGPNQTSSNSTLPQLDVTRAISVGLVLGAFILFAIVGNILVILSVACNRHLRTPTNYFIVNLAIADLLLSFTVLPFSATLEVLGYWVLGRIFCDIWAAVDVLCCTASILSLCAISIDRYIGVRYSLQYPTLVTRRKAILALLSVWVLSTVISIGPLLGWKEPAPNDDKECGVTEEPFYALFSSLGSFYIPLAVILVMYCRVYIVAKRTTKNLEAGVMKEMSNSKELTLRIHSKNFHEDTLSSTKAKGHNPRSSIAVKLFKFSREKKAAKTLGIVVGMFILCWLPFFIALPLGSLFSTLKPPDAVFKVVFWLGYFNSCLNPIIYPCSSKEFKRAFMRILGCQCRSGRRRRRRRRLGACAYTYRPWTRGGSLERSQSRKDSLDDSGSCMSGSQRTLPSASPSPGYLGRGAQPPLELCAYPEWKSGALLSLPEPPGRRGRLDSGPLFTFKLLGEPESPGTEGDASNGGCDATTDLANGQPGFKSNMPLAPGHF
Test: [3H]prazosin whole cell binding, Scatchard analysis, HEK-293 cells
Conditions: [3H]prazosin Scatchard, read-out: KD for NE
pKd: −log10 of the molar value.
value-type: pKd

So for NC[C@H](O)c1ccc(O)c(O)c1 [NE, Norepinephrine] , the logged pKd turned out to be 8.46 to 8.82
